Assign Inhibitory index to each entry below.
Biological target: Cytochrome P450 3A4 (Homo sapiens, UniProt P08684)
Sequence (P08684 whole entry): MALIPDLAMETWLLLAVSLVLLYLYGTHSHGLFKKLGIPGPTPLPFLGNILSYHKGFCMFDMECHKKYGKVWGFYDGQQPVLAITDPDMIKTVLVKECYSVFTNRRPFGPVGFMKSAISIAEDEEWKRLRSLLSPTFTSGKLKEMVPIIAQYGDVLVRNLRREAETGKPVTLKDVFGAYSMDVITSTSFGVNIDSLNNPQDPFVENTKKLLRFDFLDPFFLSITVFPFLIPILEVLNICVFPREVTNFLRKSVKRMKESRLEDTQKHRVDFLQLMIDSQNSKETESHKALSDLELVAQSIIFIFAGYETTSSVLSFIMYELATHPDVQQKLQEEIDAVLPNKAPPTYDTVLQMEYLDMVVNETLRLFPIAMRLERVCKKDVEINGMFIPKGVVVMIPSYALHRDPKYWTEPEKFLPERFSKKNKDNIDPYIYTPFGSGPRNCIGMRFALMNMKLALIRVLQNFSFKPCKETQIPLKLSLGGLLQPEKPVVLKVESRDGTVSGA
Assay: Inhibition of cytochrome P450 3A4
Form field (numeric): enter value without unit.

response.value for "CN1[C@@H]2CC[C@H]1C[C@@H](NC(=O)c1cc(Cl)cc3c1OC(C)(C)C3)C2" (field: Inhibitory index) = 0.8

response.value for CC(C)(C)c1cc(CC2SCNC2=O)cc(C(C)(C)C)c1O (configuration not stated) (field: Inhibitory index) = 0.39

response.value for "O[C@@H](COc1cccc2ncccc12)CN1CCN([C@@H]2c3ccccc3[C@@H]3[C@H](c4ccccc42)C3(F)F)CC1" (field: Inhibitory index) = 0.88

response.value for OC(COc1cccc2ncccc12)CN1CCN(C2c3ccccc3C3CC3c3ccccc32)CC1 (configuration not stated) (field: Inhibitory index) = 0.88

response.value for COCCCOc1ccnc(C[S+]([O-])c2nc3ccccc3[nH]2)c1C (configuration not stated) (field: Inhibitory index) = 0.82

response.value for "CN1CCC(c2c[nH]c3ccc(NC(=O)c4ccc(F)cc4)cc23)CC1" (field: Inhibitory index) = 0.8

response.value for COc1ccccc1CN(CC(Cc1c[nH]c2ccccc12)NC(=O)CN1CCC(N2CCCCC2)CC1)C(C)=O (configuration not stated) (field: Inhibitory index) = 0.86
